reported_metric: melting point

entry_smiles	melting point
Cc1cc(C)nc(NC(=O)NS(=O)(=O)c2ccccc2C(=O)N(C)C)c1	166 to 168 °C
Oc1cccc2c1nc(-c1c(F)cccc1F)n2Cc1c(F)cccc1F	257 to 259 °C
CCN(CC)c1nc(Cl)nc2c(Cl)ncnc12	113 to 114 °C
CCOC(=O)c1cn(NC=O)c2nc(C)ccc2c1=O	214 °C

With those in mind, consider the next compound.
Please look up its melting point: CC(=O)Nc1nc2c(C)cnc(-c3cccc([N+](=O)[O-])c3)n2n1 245 to 247 °C

* * *

reported_metric: melting point

# count of solved cases: 5
compound	melting point
O=C(O)CCc1ccc(CNC(=O)C2Cc3ccccc3N2S(=O)(=O)c2ccc(-c3cccc(C(F)(F)F)c3)cc2)cc1 (centres undefined)	85 °C
COCC(=O)c1c[nH]c2ncc(-c3cc(OC)c(OC)c(OC)c3)nc12	229 to 230 °C
CC(C)(C)c1cc(C(C)(C)C)c(O)c(S(=O)(=O)Nc2ccc([N+](=O)[O-])cc2Cl)c1	158 to 161 °C
CCCCCCCCNC1=NS(=O)(=O)c2cnccc2N1	176 to 179 °C
NC(=O)c1nc(-c2cccc(O)c2)nc2c1[nH]c(=O)n2[C@H]1CC[C@H](O)CC1	355 to 357 °C

Please look up its melting point: Cc1ccn(-c2ccc(C(=O)N3Cc4cccnc4N(C)c4ccccc43)c(C(F)(F)F)c2)n1 188 to 190 °C

Please look up its melting point: Cc1c2c(c(-c3ccc(F)cc3)c3c4c(ccc13)OCO4)C(=O)NC2=O 302 to 304 °C

Please look up its melting point: Brc1cnc2c(c1)ncn2-c1cccc(CN2CCOCC2)c1 176 to 178 °C
